B1: PLAGL1 (parent)
chain: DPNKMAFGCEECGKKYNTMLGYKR

Variants of: B1
Assay: protein stability index of a GFP-peptide fusion (GPS, HEK-293T) (PSI 1-6); higher = more stable;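 note: lentivirally expressed fusions sorted by FACS into six bins by GFP to DsRed ratio, PSI derived from sequencing read proportions per bin multiplied by bin number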
Details: c terminus: a fixed tail appended
experimental readout: protein stability index
Could you keep your reply to the number by itself?

mutant: K23V
endpoint value: 1.79
--
mutant: Y16M
endpoint value: 2.71
--
mutant: G8Q
endpoint value: 1.98

Given the variant `C9G` , what is its reported protein stability index?
3.67

Okay, and `E10S` ?
3.23

Okay, and `C9Y` ?
3.61
